Cited source for all entries: PubChem BioAssay AID746

Experimental Target: Mitogen-activated protein kinase 10 (Homo sapiens)
Assay Explanation: JNK3 kinase activity inhibitors, primary screen, biochemical, human, purified enzyme (AID 746);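 also: 0% = DMSO and 100% = reference inhibitor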
Condition Info: HTS, at 8 µM, hits give high values
In all, about 60,000 compounds went through this assay and about 370 (0.62%) were called active. Shown is part of a subset that was picked to be rich in actives.
Reported Property: inhibition (%)
API: value field is a number in %; no unit string.

Problem: Any idea what its inhibition is? The compound is Nc1nonc1C(=O)NCCc1ccccc1
Solution: 2.83

Problem: Any idea what its inhibition is? The compound is Cc1ccc2oc(=O)c3cnn(CC(=O)N4CCN(c5ccccn5)CC4)c3c2c1
Solution: 37.2

Problem: Any idea what its inhibition is? The compound is CC(=O)Oc1ccc(C)cc1N1C(=O)c2ccc(C(=O)O)cc2C1=O
Solution: 0.63

Problem: Any idea what its inhibition is? The compound is O=C(CSc1nnc(-c2ccco2)o1)NCC(=O)c1ccccc1
Solution: -0.03
